system: SF-539 CNS; assay: NCI tumour cell line growth inhibition, 48 h
Quantity kind: TGI (µM)
Form entry: value (µM) — number only.

Record excerpt, results attached:
Lookup: TGI / SF-539 CNS / "COc1cc(Nc2ncnc(Nc3ccc4c(n3)NC(=O)C(C)(C)O4)n2)cc(OC)c1OC"
0.673

Lookup: TGI / SF-539 CNS / "Clc1ccc(OCc2nnc3n2N=C(c2ccccc2)CS3)c(Cl)c1"
91.1

Lookup: TGI / SF-539 CNS / "Cc1cc(N(CCC#N)CCC#N)ccc1/C(N=Nc1ccc([N+](=O)[O-])cc1)=N\NC(=O)c1ccccc1"
92.9

Lookup: TGI / SF-539 CNS / O=C1Nc2ccccc2/C1=C/c1cn(CC(O)Cn2cc(/C=C3\C(=O)Nc4ccccc43)c3ccccc32)c2ccccc12 (stereo not given)
3.11

Please examine the following record next.
Lookup: TGI / SF-539 CNS / O=C(Oc1ccccc1)C(Br)C(Br)c1ccccc1 (stereo not given)
16.4

Origin of measurements: PubChem BioAssay (NCI)
